ASSAY TARGET: full-length beta-Catenin (Uniprot ID P35222) (Homo sapiens (Human)) (UniProt P35222)
Sequence (P35222 2-781 limits assumed): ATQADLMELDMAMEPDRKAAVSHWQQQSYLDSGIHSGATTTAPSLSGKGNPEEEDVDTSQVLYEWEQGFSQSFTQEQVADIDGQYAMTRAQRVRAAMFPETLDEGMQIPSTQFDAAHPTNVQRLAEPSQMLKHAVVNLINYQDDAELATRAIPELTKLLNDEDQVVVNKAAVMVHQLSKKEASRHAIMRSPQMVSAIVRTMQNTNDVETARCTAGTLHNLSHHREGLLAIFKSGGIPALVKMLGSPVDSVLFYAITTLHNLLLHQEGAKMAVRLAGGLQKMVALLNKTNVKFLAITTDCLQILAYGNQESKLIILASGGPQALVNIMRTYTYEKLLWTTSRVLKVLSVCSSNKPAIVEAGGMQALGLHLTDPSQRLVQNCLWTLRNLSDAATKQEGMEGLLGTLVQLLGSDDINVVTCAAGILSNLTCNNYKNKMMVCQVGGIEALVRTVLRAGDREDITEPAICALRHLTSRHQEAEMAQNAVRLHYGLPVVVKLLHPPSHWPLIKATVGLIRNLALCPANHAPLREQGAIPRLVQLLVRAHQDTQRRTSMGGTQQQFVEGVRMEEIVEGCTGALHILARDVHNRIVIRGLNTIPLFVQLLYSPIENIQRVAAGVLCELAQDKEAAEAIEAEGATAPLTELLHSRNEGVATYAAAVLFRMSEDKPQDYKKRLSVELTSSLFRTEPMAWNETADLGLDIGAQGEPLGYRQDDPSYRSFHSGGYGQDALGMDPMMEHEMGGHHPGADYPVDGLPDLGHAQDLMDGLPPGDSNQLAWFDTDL
PROTOCOL NOTES: fluorescence polarization competition; peptide displaces 5FAM-TCF4(10-53) from full-length beta-catenin
pIC50: −log10 of the molar value. Starred links: 1 amine or outer side, 2 acyl side, 3 side chain; linkers in the order of their positions; H or OH if unused. Positions of bridges follow the written chain, without caps; N, C: chain ends. Non-standard residues stand in square brackets, D forms with d. Primed or numbered codes have the meaning given here. B5(5) = 2,2-bis(4-pentenyl)glycine, 2-amino-2-(pent-4-en-1-yl)hept-6-enoic acid (stitching residue), C=CCCCC(CCCC=C)(N[*:1])C(=O)[*:2]; PyrS2 = (S)-3-amino-1-((pent-4-en-1-yloxy)carbonyl)pyrrolidine-3-carboxylic acid, C=CCCCOC(=O)N1CC[C@@](N[*:1])(C(=O)[*:2])C1; B5(3) = 2,2-bis(4-pentenyl)glycine (stitching residue), C=CCCCC(CCCC=C)(N[*:1])C(=O)[*:2]; Trp(5-Cl) = N[C@@H](Cc1c[nH]c2ccc(Cl)cc12)C(=O)O; Bta = N[C@@H](Cc1csc2ccccc12)C(=O)O; αAllylPro = C=CC[C@@]1(C(=O)O)CCCN1; tBuAla = CC(C)(C)C[C@H](N)C(=O)O; 3Thi = N[C@@H](Cc1ccsc1)C(=O)O
READOUT TYPE: pIC50

> print(dat)
                                     binder  quantitative.result
1  Ac-[αAllylPro]D[tBuAla][B5(5)]DDAAFN[PyrS2][3Thi][Trp(5-Cl)]H-NH2 (staple 1-4, 4-11) [I-791]                 6.51

(a) Ac-[αAllylPro]D[tBuAla][B5(3)]DDAAFN[PyrS2][3Thi][Bta]-NH2 (staple 1-4, 4-11) [I-785]
(b) Ac-[αAllylPro]D[tBuAla][B5(3)]DDAAFN[PyrS2][Bta][Bta]H-NH2 (staple 1-4, 4-11) [I-793]
Smaller pIC50 value, a vs b ? Selection: enter the item's label. b
(b: 7.85, a: 8.22)
